Give pEC50 for every item shown.
- Tested on: HL-60
- method_description: HL-60 differentiation potency
- Format: cell-based
- experimental_context: Homo sapiens
Give bare numbers, as −log10 of the molar value.

>  <compound>
C[C@H]1[C@H](Oc2ccc(CC(=O)O)cc2)O[C@@H]2O[C@@]3(C)CC[C@H]4[C@H](C)CC[C@@H]1[C@@]24OO3 [Compound 12]

>  <target_of_assay>
HL-60

>  <endpoint>
pEC50

>  <value_measured>
7.03

$$$$
>  <compound>
C[C@H]1[C@@H](Oc2ccc(C(C)(C)C(=O)O)cc2)O[C@@H]2O[C@@]3(C)CC[C@H]4[C@H](C)CC[C@@H]1[C@@]24OO3 [Compound 126]

>  <target_of_assay>
HL-60

>  <endpoint>
pEC50

>  <value_measured>
7.81

$$$$
>  <compound>
C[C@H]1[C@@H](OCc2ccc(C(=O)O)c(F)c2F)O[C@@H]2O[C@@]3(C)CC[C@H]4[C@H](C)CC[C@@H]1[C@@]24OO3 [Compound 31]

>  <target_of_assay>
HL-60

>  <endpoint>
pEC50

>  <value_measured>
6.49

$$$$
>  <compound>
C[C@H]1[C@@H](OCC2(C(=O)O)CCC2)O[C@@H]2O[C@@]3(C)CC[C@H]4[C@H](C)CC[C@@H]1[C@@]24OO3 [Compound 127]

>  <target_of_assay>
HL-60

>  <endpoint>
pEC50

>  <value_measured>
5.05

$$$$
>  <compound>
C[C@H]1[C@H](OCc2ccc(C(=O)O)o2)O[C@@H]2O[C@@]3(C)CC[C@H]4[C@H](C)CC[C@@H]1[C@@]24OO3 [Compound 61]

>  <target_of_assay>
HL-60

>  <endpoint>
pEC50

>  <value_measured>
4.87

$$$$
>  <compound>
C[C@H]1[C@@H](OC[C@H]2CCC[C@@H](C(=O)O)C2)O[C@@H]2O[C@@]3(C)CC[C@H]4[C@H](C)CC[C@@H]1[C@@]24OO3 [Compound 135]

>  <target_of_assay>
HL-60

>  <endpoint>
pEC50

>  <value_measured>
6.65

$$$$
>  <compound>
C[C@H]1[C@@H](Oc2ccc(O[C@H]3C[C@@H](C(=O)O)C3)cc2)O[C@@H]2O[C@@]3(C)CC[C@H]4[C@H](C)CC[C@@H]1[C@@]24OO3 [Compound 182]

>  <target_of_assay>
HL-60

>  <endpoint>
pEC50

>  <value_measured>
7.62

$$$$
>  <compound>
C[C@H]1[C@H](Oc2ccc(C#CC(=O)O)cc2)O[C@@H]2O[C@@]3(C)CC[C@H]4[C@H](C)CC[C@@H]1[C@@]24OO3 [Compound 139]

>  <target_of_assay>
HL-60

>  <endpoint>
pEC50

>  <value_measured>
7.51

$$$$

# return pEC50 for each item in the list
1. C[C@H]1[C@H](OCC#Cc2ccc(C(=O)O)cc2F)O[C@@H]2O[C@@]3(C)CC[C@H]4[C@H](C)CC[C@@H]1[C@@]24OO3 [Compound 166]
2. C[C@H]1[C@@H](OCC#Cc2ccc(C(=O)O)cc2F)O[C@@H]2O[C@@]3(C)CC[C@H]4[C@H](C)CC[C@@H]1[C@@]24OO3 [Compound 165]
3. C[C@H]1[C@@H](OCc2ccc(C(=O)O)c(F)c2)O[C@@H]2O[C@@]3(C)CC[C@H]4[C@H](C)CC[C@@H]1[C@@]24OO3 [Compound 24]
4. C[C@H]1[C@@H](OC2C[C@H]3CC(C(=O)O)C[C@@H]23)O[C@@H]2O[C@@]3(C)CC[C@H]4[C@H](C)CC[C@@H]1[C@@]24OO3 (stereo partly drawn) [Compound 157]
5. C[C@H]1[C@H](OCc2ccc3c(c2)OC(F)(F)O3)O[C@@H]2O[C@@]3(C)CC[C@H]4[C@H](C)CC[C@@H]1[C@@]24OO3 [Compound 6]

Output:
[7.17, 7.10, 6.68, 6.10, 7.27]

# return pEC50 for each item in the list
1. C[C@H]1[C@@H](OCCCc2ccc(C(=O)O)cc2)O[C@@H]2O[C@@]3(C)CC[C@H]4[C@H](C)CC[C@@H]1[C@@]24OO3 [Compound 10]
2. C[C@H]1[C@H](OCCCc2ccc(C(=O)O)cc2)O[C@@H]2O[C@@]3(C)CC[C@H]4[C@H](C)CC[C@@H]1[C@@]24OO3 [Compound 21]

Output:
7.20
6.91
